Assay: qHTS assay to identify small molecule antagonists of the thyroid receptor (TR) signaling pathway (AID 743065); also: nearly all actives have a fitted effect of over 55% in size
Conditions: GH3.TRE-Luc, T3-stimulated luciferase inhibition, 23.5 h; series mostly up to 70.3 µM
Excerpt: U.S. Tox21 Program National Center for Advancing Translational Sciences [NCATS] NIH Chemical Genomics Center [NCGC] U.S. Environmental Protection Agency [EPA] National Institutes of Environmental Health Sciences [NIEHS] National Toxicology Program [NTP] U.S. Food and Drug Administration [FDA] Tox21 Assay Overview: Thyroid receptor (TR), a nuclear hormone receptor, plays an important role in development, proliferation, differentiation, metabolism, brain function, and cardiovascular system. […]
Results filed as inconclusive are left out. Active and inactive are the calls of the source. Calls follow the shape of the dose curve; as a rule, active = well fitted inhibition curve with a large enough effect in the repeat runs; inconclusive = weak or mixed curves; inactive = no such curve, though single readings can be large or run the other way.
// one of TRUE for active, FALSE for inactive, no free text

Can you look up the reported call for CCN(CC)c1cccc(O)c1 for me?
FALSE

Can you look up the reported call for COc1ccc(N)c([N+](=O)[O-])c1 for me?
FALSE

Can you look up the reported call for COc1cc(S(=O)(=O)Nc2ccccc2)c(OC)cc1N for me?
FALSE

Can you look up the reported call for CO[C@@H]1[C@@H](OC)[C@H](C)[C@@](O)(CC(=O)O)O[C@H]1[C@H](C)[C@H]1O[C@@]2(CC[C@@](C)([C@H]3CC[C@@](C)([C@@H]4O[C@@H]([C@H]5O[C@](C)(O)[C@H](C)C[C@@H]5C)C[C@@H]4OC4C[C@H](OC)[C@@H](OC)[C@H](C)O4)O3)O2)C[C@H](O)[C@H]1C (stereo partly drawn) for me?
TRUE

Can you look up the reported call for CCN(CC)c1ccc(C(=C2C=CC(=[N+](CC)CC)C=C2)c2ccc(S(=O)(=O)O)cc2S(=O)(=O)[O-])cc1 for me?
TRUE

====

Experiment: qHTS assay to identify small molecule agonists of the vitamin D receptor (VDR) signaling pathway - cell viability counter screen (AID 743224); also: nearly all actives have a fitted effect of over 50% in size
Details: VDR-bla HEK293T viability, CellTiter-Glo luminescence, 16 h; series mostly up to 62.6 µM
Inconclusive results are not listed. Active and inactive are the calls of the source. The call rests on the fitted dose curve; in most records, active means well fitted cell-killing curve with a large enough effect in the repeat runs; inconclusive means weak or mixed curves, or effect the other way; inactive means no such curve, though single readings can be large or run the other way.
// one of active, inactive, no free text

For orientation, consider the following solved cases.
- COMPOUND: "CC(=O)c1ccc[nH]1"
  CLASS NAME: "inactive"
- COMPOUND: "NC(=O)c1ccccc1[N+](=O)[O-]"
  CLASS NAME: "inactive"
- COMPOUND: "O=C(O)c1cccc(C[C@@H]2COc3ccc(OCc4nc5cc(F)ccc5s4)cc3[C@@H]2O)c1"
  CLASS NAME: "inactive"
- COMPOUND: "CCCCCCCC/C=C/C(=O)O"
  CLASS NAME: "inactive"
- COMPOUND: "O=S(=O)(Cl)c1c(Cl)cccc1Cl"
  CLASS NAME: "inactive"

Can you look up the reported call for C=CC(=O)O for me?
inactive

Can you look up the reported call for Cc1ccc2c(c1)CCCN2 for me?
inactive

Can you look up the reported call for CCCCCCCCCCCCCCCC(=O)OCC for me?
inactive

Can you look up the reported call for CC(C)N(C)C for me?
inactive

Can you look up the reported call for CO[C@@H]1[C@@H](OC)[C@H](C)[C@@](O)(CC(=O)O)O[C@H]1[C@H](C)[C@H]1O[C@@]2(CC[C@@](C)([C@H]3CC[C@@](C)([C@@H]4O[C@@H]([C@H]5O[C@](C)(O)[C@H](C)C[C@@H]5C)C[C@@H]4OC4C[C@H](OC)[C@@H](OC)[C@H](C)O4)O3)O2)C[C@H](O)[C@H]1C (stereo partly specified) for me?
active

Can you look up the reported call for O=C(NC(Cc1cc(=O)[nH]c2ccccc12)C(=O)O)c1ccc(Cl)cc1 (stereo unspecified) for me?
inactive
